# Tested on: IL-2-FL/Gaussia Luciferase
# ASSAY PROCEDURE: Dox Induced IL2-FL-Gluc Assay
# Type: cell-based
# ASSAY SETUP: 24 hr doxycycline induction, 293FRT/TO cells, Gaussia luciferase signal; read-out: 24 hr Dox Inducible IL2FLGIuc 293FRT/TO: Mean IC50
MEASUREMENT TYPE: IC50 (nM)

Entry CC(F)(F)c1csc(NC(=O)c2cccn2Cc2ccncc2)n1 [Compound A29] — recorded IC50 = 935

Entry CC(C)Oc1ccc(/C=C/c2csc(NC(=O)c3cccn3Cc3ccncc3)n2)cc1 [Compound A236] — recorded IC50 = 1010

Entry CC(C)OC(C)(C)c1csc(NC(=O)c2cccn2CCCc2ccncc2)n1 [Compound A11] — recorded IC50 = 61

Entry CC(C)OC(C)(C)c1csc(NC(=O)c2cccn2Cc2ccc([N+](=O)[O-])cc2)n1 [Compound A53] — recorded IC50 = 1200

Entry O=C(Nc1nc(C2Cc3ccccc3C2)cs1)c1cccn1Cc1ccncc1 [Compound A281] — recorded IC50 = 1160

a. CC(OC(C)(C)c1csc(NC(=O)c2cccn2Cc2ccncc2)n1)c1cccc(Cl)c1 (centres unmarked) [Compound A2]
b. CCCc1cnc(NC(=O)c2cccn2Cc2ccncc2)s1 [Compound A62]
Identify the entry with the larger IC50. Options: a and b Give the label under which the chosen entry appears.
b
(b: 5070 nM, a: 105 nM)

1. O=C(Nc1nc(/C=C/c2cccnc2)cs1)c1cccn1Cc1ccncc1 [Compound A165]
2. CC(C)(OCC1CCOCC1)c1csc(NC(=O)c2cccn2Cc2ccncc2)n1 [Compound A40]
Kindly compare 1 with 2 and tell me which has the lower IC50 figure. Give the label under which the chosen entry appears.
2

a. O=C(Nc1nc(/C=C/c2ccc(OC3CC3)cc2)cs1)c1cccn1Cc1ccncc1 [Compound A248]
b. CC(C)OC(C)(C)c1csc(NC(=O)c2nccn2Cc2ccncc2)n1 [Compound A108]
Kindly compare a with b and tell me which has the lower IC50 figure. Give the label under which the chosen entry appears.
a

###

# System: IL-2-FL/Gaussia Luciferase
# ASSAY PROCEDURE: Dox Induced IL2-FL-Gluc Assay
# Format: cell-based
# ASSAY SETUP: 24 hr doxycycline induction, 293FRT/TO cells, Gaussia luciferase signal; read-out: 24 hr Dox Inducible IL2FLGIuc 293FRT/TO: Mean IC50
pIC50: −log10 of the molar value.
MEASUREMENT TYPE: pIC50

Entry `CC(C)(OCC1CCCCC1)c1csc(NC(=O)c2cccn2Cc2ccncc2)n1` — recorded pIC50 = 7.15

Entry `CC(C)(OCc1ccccn1)c1csc(NC(=O)c2cccn2Cc2ccncc2)n1` — recorded pIC50 = 5.44

Entry `CO[C@H]1CC[C@@H](/C=C/c2csc(NC(=O)c3cccn3Cc3ccncc3)n2)CC1` — recorded pIC50 = 6.26

1. O=C(Nc1nc([C@H]2CCC[C@@H](c3ccccc3)C2)cs1)c1cccn1Cc1ccncc1
2. CCc1cnc(NC(=O)c2cccn2Cc2ccncc2)s1
3. CC(C)(OCC1CCCCO1)c1csc(NC(=O)c2cccn2Cc2ccncc2)n1 (stereo not drawn)
Reorder the items by pIC50, least to greatest. Give the order by naming the labels one after another as requested.
2, 3, 1

###

# Tested on: HER3-ss+4aa/Gaussia Luciferase
# ASSAY PROCEDURE: Dox-Induced Her3-ss-Gluc Assay
# Assay type: cell-based
# ASSAY SETUP: 24 hr doxycycline induction, 293FRT/TO cells, Gaussia luciferase signal; read-out: 24 hr Dox Inducible Her3(ss + 4)Gluc 293FRT/TO: Mean IC50
pIC50: −log10 of the molar value.
MEASUREMENT TYPE: pIC50

A. O=C(Nc1nc(Cc2ccccc2)cs1)c1cccn1CCCc1ccncc1
B. CC(C)OC(C)(C)c1csc(NC(=O)c2cccn2Cc2ccnnc2)n1
Kindly compare A with B and tell me which has the lower pIC50 figure. Give the label under which the chosen entry appears.
B
(B: 5.21, A: 6.09)
